Values compiled from ChEMBL document CHEMBL4616713.

Kindly supply the reported pEC50 values for the records listed here.
Biological target: Proteinase-activated receptor 2 (Homo sapiens)
Sequence (P55085 whole entry): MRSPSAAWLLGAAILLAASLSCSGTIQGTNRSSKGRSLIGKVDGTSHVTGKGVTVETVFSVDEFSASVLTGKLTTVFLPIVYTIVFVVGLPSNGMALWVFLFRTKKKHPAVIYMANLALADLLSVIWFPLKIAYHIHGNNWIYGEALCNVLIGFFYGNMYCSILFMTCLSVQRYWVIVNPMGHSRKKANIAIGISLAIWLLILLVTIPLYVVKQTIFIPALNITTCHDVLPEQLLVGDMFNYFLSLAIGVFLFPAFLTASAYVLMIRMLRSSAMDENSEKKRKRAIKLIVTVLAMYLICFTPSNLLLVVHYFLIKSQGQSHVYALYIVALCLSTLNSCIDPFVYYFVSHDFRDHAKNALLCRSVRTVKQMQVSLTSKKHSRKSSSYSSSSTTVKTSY
Test: Agonist activity at human PAR2 expressed in HEK293T cells assessed as induction of Galphaq-stimulated IP1 formation incubated for 2 hrs by FRET assay
Format: functional, cell-based, HEK-293T
Conditions: read-out: EC50
Non-standard residues stand in square brackets, D forms with d. Residues, ends and D or L forms follow the SMILES beside them. *: point of attachment. Orn = NCCC[C@H](N)C(=O)O; 2Furoyl = O=C(c1ccco1)*
pEC50 is a log-scale quantity: -log10 of the concentration expressed in molar.

# get_value(readout= pEC50, system= Proteinase-activated receptor 2 (Homo sapiens)) for `Cc1cc(C(=O)N[C@@H](CC2CCCCC2)C(=O)NCc2ccccc2CC(N)=O)on1` 6.19

Follow-up entry: `NC(=O)Cc1ccccc1CNC(=O)[C@H](CC1CCCCC1)NC(=O)c1ccno1` 6.23

Continue with CC[C@H](C)[C@H](NC(=O)[C@H](CC(C)C)NC(=O)c1ccco1)C(=O)NCC(=O)N[C@@H](CCCN=C(N)N)C(=O)N[C@@H](CC(C)C)C(=O)N[C@@H](CCCN)C(N)=O (2Furoyl-LIGRL[Orn]-NH2) 6.82

What do you get for `NC(=O)Cc1ccccc1CNC(=O)[C@H](Cc1ccccc1)NC(=O)c1ccno1` ? 5.72

###

Molecular target: Proteinase-activated receptor 2 (Homo sapiens)
Assay: Agonist activity at PK1-tagged PAR2 (unknown origin) expressed in HEK293 cells assessed as induction of beta-arrestin recruitment incubated for 90 mins by Pathhunter chemiluminescent assay
Assay type: cell-based
Settings: read-out: EC50
Non-standard residues stand in square brackets, D forms with d. Residues, ends and D or L forms follow the SMILES beside them. *: point of attachment. Orn = NCCC[C@H](N)C(=O)O; 2Furoyl = O=C(c1ccco1)*
Hi there, I'd appreciate the recorded pEC50 for every entry that follows.
// pEC50 here means minus log10 of the molar concentration (mol/L)

Given the compound CC[C@H](C)[C@H](NC(=O)[C@H](CC(C)C)NC(=O)c1ccco1)C(=O)NCC(=O)N[C@@H](CCCN=C(N)N)C(=O)N[C@@H](CC(C)C)C(=O)N[C@@H](CCCN)C(N)=O (2Furoyl-LIGRL[Orn]-NH2) , what is its reported pEC50? 6.37

Now give it for `NC(=O)Cc1ccccc1CNC(=O)[C@H](CC1CCCCC1)NC(=O)c1ccno1` too. 5.22

Another compound to look at: `Cc1cc(C(=O)N[C@@H](CC2CCCCC2)C(=O)NCc2ccccc2CC(N)=O)on1` 5.05
